The origin of these recorded values is patent US12521388B2.

Test details: Cytotoxicity in MT4 cells (mock-infected) in the antiviral assay
Type: cell-based
Setup conditions: human
Measured metric: CC50 at 5 days (µM)
Write it as a number; the unit µM goes unstated.

Query :: Query: CC50 at 5 days; subject: "O=C(NCc1ccc(F)cc1F)c1cn2c(c(O)c1=O)C(=O)N1C3CCC1(CC3)C2"
Result :: 26.2

* * *

System: HIV-IIIb
Test details: Antiviral assay in MT4 cells
Assay type: cell-based
Setup conditions: Human immunodeficiency virus 1, 120 h; MT4 cells infected with HIV-IIIb (0.004 m.o.i.), 5 days incubation, CellTiter-Glo; average over time; read-out: EC50 nM in MT-4
Lab note: compare EC50 with 2 nM, writing 1 if less and -1 if equal or more.

O=C(NCc1ccc(F)cc1F)c1cn2c(c(O)c1=O)C(=O)N1C3CCC1(CC3)C2 = 1
O=C(NCc1c(F)cc(F)cc1F)c1cn2c(c(O)c1=O)C(=O)N1C[C@@H]3CC[C@]1(C3)C2 = 1
O=C(NCc1cccc(Cl)c1F)c1cn2c(c(O)c1=O)C(=O)N1C[C@H]3CCC[C@@]1(C3)C2 = -1
O=C(NCc1c(F)cc(F)cc1F)c1cn2c(c(O)c1=O)C(=O)N1C[C@H]3CCC[C@@]1(C3)C2 = -1

Query :: Hello, I'm reviewing records and need to know if EC50 of "C[C@@]12CCC[C@]3(Cn4cc(C(=O)NCc5c(F)cc(F)cc5F)c(=O)c(O)c4C(=O)N3C1)C2" is below 2 nM. Could you check?
Result :: 1

Query :: Hello, I'm reviewing records and need to know if EC50 of "O=C(NCc1ccc(F)cc1F)c1cn2c(c(O)c1=O)C(=O)N1C[C@H]3C[C@]1(C2)C3" is below 2 nM. Could you check?
Result :: -1

Query :: Hello, I'm reviewing records and need to know if EC50 of "O=C(NCc1c(F)cc(F)cc1F)c1cn2c(c(O)c1=O)C(=O)N1C[C@@H]3CCC[C@]1(C3)C2" is below 2 nM. Could you check?
Result :: 1

* * *

System: HIV-IIIb
Test details: Antiviral assay in MT4 cells
Format: cell-based
Setup conditions: Human immunodeficiency virus 1, 120 h; MT4 cells infected with HIV-IIIb (0.004 m.o.i.), 5 days incubation, CellTiter-Glo; average over time; read-out: EC50 nM in MT-4
Measured metric: EC50 (nM)
Write it as a number; the unit nM goes unstated.

Below, 7 compounds whose answers are already recorded.
O=C(NCc1ccc(F)cc1F)c1cn2c(c(O)c1=O)C(=O)N1C[C@H]3CC[C@@]1(CC3)C2 [Compound 2] = 4.4
O=C(NCc1ccc(F)cc1F)c1cn2c(c(O)c1=O)C(=O)N1C[C@H]3CC[C@@]1(C3)C2 [Compound 11] = 3.2
C[C@@H](NC(=O)c1cn2c(c(O)c1=O)C(=O)N1C3CCC1(CC3)C2)c1c(F)cc(F)cc1F [Compound 14] = 6.2
O=C(NCc1c(F)cc(F)cc1F)c1cn2c(c(O)c1=O)C(=O)N1C[C@H]3CC[C@@]1(C3)C2 [Compound 12] = 3.2
O=C(NCc1ccc(F)cc1F)c1cn2c(c(O)c1=O)C(=O)N1C[C@@H]3CC[C@]1(C3)C2 [Compound 10] = 2.3
O=C(NCc1ccc(F)cc1F)c1cn2c(c(O)c1=O)C(=O)N1C[C@@H]3CCC[C@]1(C3)C2 [Compound 4] = 1.6
O=C(NCc1c(F)cc(F)cc1F)c1cn2c(c(O)c1=O)C(=O)N1C3CCC1(CC3)C2 [Compound 15] = 2.3

Continue with the compound presented below.
Query :: Can you look up EC50 on HIV-IIIb for O=C(NCc1ccc(F)cc1F)c1cn2c(c(O)c1=O)C(=O)N1C[C@H]3CCC[C@@]1(C3)C2 [Compound 6] ?
Result :: 2.6
